Recorded values, source PubChem BioAssay AID1963844.

Tested on: 422866-222-R5-J1-PDC complex spheroid viability;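 note: spheroids exposed to compounds for one week before readout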
test-name: Anticancer human tumor 422866-222-R5-J1-PDC patient-derived pancreatic adenocarcinoma cell line growth inhibition [POLQ]
applied-conditions: curve of first compound; second compound 0.316 µM
pIC50: −log10 of the molar value.

>  <molecule>
COc1cccc2c1C(=O)c1c(O)c3c(c(O)c1C2=O)CC(O)(C(=O)CO)CC3OC1CC(N)C(O)C(C)O1 (stereo not given) + Cc1cccc(N(C)C(=O)C2C(O)CCN2c2nc(C)cc(C(F)(F)F)c2C#N)c1

>  <target-of-assay>
422866-222-R5-J1-PDC complex spheroid viability;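 note: spheroids exposed to compounds for one week before readout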

>  <pIC50>
6.82

$$$$
>  <molecule>
Cn1ncnc1[C@H]1c2n[nH]c(=O)c3cc(F)cc(c23)N[C@@H]1c1ccc(F)cc1 + COC1C(OC(N)=O)C(O)C(Oc2ccc3c(O)c(NC(=O)c4ccc(O)c(CC=C(C)C)c4)c(=O)oc3c2C)OC1(C)C

>  <target-of-assay>
422866-222-R5-J1-PDC complex spheroid viability;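 note: spheroids exposed to compounds for one week before readout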

>  <pIC50>
< 7.00

$$$$
>  <molecule>
CCCS(=O)(=O)Nc1ccc(F)c(C(=O)c2c[nH]c3ncc(-c4ccc(Cl)cc4)cc23)c1F + Cc1cccc(N(C)C(=O)C2C(O)CCN2c2nc(C)cc(C(F)(F)F)c2C#N)c1

>  <target-of-assay>
422866-222-R5-J1-PDC complex spheroid viability;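 note: spheroids exposed to compounds for one week before readout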

>  <pIC50>
< 5.00

$$$$
>  <molecule>
O=C(Nc1ccc(O)c(NS(=O)(=O)c2ccc(F)cc2)c1)c1ccc(-c2ccccc2)cc1 + COC1C(OC(N)=O)C(O)C(Oc2ccc3c(O)c(NC(=O)c4ccc(O)c(CC=C(C)C)c4)c(=O)oc3c2C)OC1(C)C

>  <target-of-assay>
422866-222-R5-J1-PDC complex spheroid viability;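 note: spheroids exposed to compounds for one week before readout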

>  <pIC50>
< 5.00

$$$$
>  <molecule>
COc1cc2cc(C(=O)CCC(=O)O)sc2cc1OC + COC1C(OC(N)=O)C(O)C(Oc2ccc3c(O)c(NC(=O)c4ccc(O)c(CC=C(C)C)c4)c(=O)oc3c2C)OC1(C)C

>  <target-of-assay>
422866-222-R5-J1-PDC complex spheroid viability;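 note: spheroids exposed to compounds for one week before readout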

>  <pIC50>
< 5.00

$$$$
